- study-system: Human TRPA1 expressing CHO cells (Homo sapiens)
- Construct: expressed in transfected cells; host or cells: CHO cells (under G-418 selection)
- Sequence (O75762 whole entry): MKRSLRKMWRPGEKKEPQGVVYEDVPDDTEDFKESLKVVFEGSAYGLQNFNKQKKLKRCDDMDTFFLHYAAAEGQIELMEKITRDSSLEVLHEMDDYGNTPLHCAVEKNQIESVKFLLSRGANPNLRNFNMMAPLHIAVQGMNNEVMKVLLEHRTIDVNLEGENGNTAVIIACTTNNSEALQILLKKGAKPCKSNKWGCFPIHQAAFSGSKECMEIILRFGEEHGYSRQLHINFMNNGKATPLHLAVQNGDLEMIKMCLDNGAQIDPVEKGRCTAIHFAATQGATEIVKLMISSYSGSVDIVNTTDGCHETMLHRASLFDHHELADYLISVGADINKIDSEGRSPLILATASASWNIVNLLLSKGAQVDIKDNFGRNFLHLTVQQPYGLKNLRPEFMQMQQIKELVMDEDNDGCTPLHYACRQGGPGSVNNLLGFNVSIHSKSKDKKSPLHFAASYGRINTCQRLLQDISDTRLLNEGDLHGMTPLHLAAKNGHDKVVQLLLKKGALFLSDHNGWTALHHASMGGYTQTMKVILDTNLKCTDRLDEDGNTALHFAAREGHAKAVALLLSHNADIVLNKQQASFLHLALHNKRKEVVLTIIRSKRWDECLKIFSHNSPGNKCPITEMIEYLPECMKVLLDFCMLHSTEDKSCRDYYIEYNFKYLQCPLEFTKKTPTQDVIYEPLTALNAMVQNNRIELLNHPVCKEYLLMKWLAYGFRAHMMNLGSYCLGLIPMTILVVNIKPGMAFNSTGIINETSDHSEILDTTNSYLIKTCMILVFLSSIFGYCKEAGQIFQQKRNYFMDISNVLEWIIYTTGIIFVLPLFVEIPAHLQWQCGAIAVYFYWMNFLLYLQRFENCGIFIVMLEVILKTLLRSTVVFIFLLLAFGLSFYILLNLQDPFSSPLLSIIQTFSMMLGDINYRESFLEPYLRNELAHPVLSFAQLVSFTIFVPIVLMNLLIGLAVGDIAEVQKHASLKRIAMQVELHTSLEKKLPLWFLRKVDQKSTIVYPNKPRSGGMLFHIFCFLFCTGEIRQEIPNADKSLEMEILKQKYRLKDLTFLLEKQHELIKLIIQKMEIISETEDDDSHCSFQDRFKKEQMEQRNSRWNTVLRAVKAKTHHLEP
- test-details: 45Calcium uptake assay: inhibition of AITC induced cellular uptake of radioactive calcium
- Format: cell-based
- measurement-context: 10.0 μM test compound; AITC 30 μM; human TRPA1 CHO cells; read-out: Percentage inhibition at 10.0 μM
Property: inhibition at 10 µM; scope: individual compounds
Kindly provide the numeric value in % only, without the unit symbol.

# count of solved cases: 3
| smiles-data | experimental-result |
| --- | --- |
| Cn1c(=O)c2c(CC(=O)Nc3nnc(-c4ccc(Br)cc4)s3)cccc2n(C)c1=O | 3.46 |
| Cn1c(=O)c2c(CC(=O)Nc3nc4ccc(F)cc4s3)cccc2n(C)c1=O | 28.5 |
| Cn1c(=O)c2c(CC(=O)Nc3nc(-c4c(Cl)ccc(F)c4Cl)cs3)cccc2n(C)c1=O | 27 |

Shift focus to the following entry.
[Q] Query (compound): Cn1c(=O)c2c(CC(=O)Nc3nc(-c4cc(Cl)ccc4F)cs3)cccc2n(C)c1=O ; field requested: inhibition at 10 µM
[A] 95.3

Cited source: patent US7951814B2
